- System: murine neural precursor cells (neurosphere cultures)
- assay: HTS of LOPAC library against secondary neurosphere cultures, MTT proliferation assay at 3 μM, day 7 (z score, P value)
- Type: cell-based, mouse
- cond: LOPAC primary screen, neurosphere MTT proliferation, 3 μM, day 7
Where a name gives a salt, the structure may show the parent alone.
Use criterion met when the recorded Z score is no lower than -0.4; use criterion not met when it is lower.

Illustrative cases are given below, each with its answer.
>>> print(df.to_string())
                                   compound  assigned_class
0  Cc1nc2n(c(=O)c1CCN1CCC(c3noc4cc(F)ccc34)CC1)CCCC2 [Risperidone]   criterion met
1  COc1ccc(Cl)cc1C(=O)NCCc1ccc(S(=O)(=O)NC(=O)NC2CCCCC2)cc1 [Glibenclamide]   criterion met
2  CCCNC(C)C(=O)Nc1ccccc1C (stereo not drawn) [Prilocaine hydrochloride]   criterion met

query: For this compound, is measured Z score -0.4 or higher? CN1CC[C@]2(CCN3CCc4c(oc5ccccc45)[C@@H]3C2)N(C)C1=O.Cl [MK-912]
result: criterion not met

query: For this compound, is measured Z score -0.4 or higher? O=C(O)c1ccccc1Nc1cccc(OCc2ccc3ccccc3n2)c1 [SR 2640]
result: criterion not met

query: For this compound, is measured Z score -0.4 or higher? N=C1Sc2ccccc2C2=NCCCN12 [PD 404,182]
result: criterion met

query: For this compound, is measured Z score -0.4 or higher? O=C(O)[C@@H]1CCN1 [L-azetidine-2-carboxylic acid]
result: criterion met

query: For this compound, is measured Z score -0.4 or higher? CCc1ccccc1OC[C@@H](O)CN[C@H]1CCCc2ccccc21.O=C(O)C(=O)O [SR 59230A oxalate]
result: criterion not met

query: For this compound, is measured Z score -0.4 or higher? COCCCC/C(=N\OCCN)c1ccc(C(F)(F)F)cc1 [Fluvoxamine maleate]
result: criterion met

---

- System: murine neural precursor cells (neurosphere cultures)
- assay: HTS of LOPAC library against secondary neurosphere cultures, MTT proliferation assay at 3 μM, day 7 (z score, P value)
- Type: cell-based, mouse
- cond: LOPAC primary screen, neurosphere MTT proliferation, 3 μM, day 7
Structures can show the parent of a compound that is named as a salt.
Class assignment keyed on Z score, ranges lower bin (below -0.8), middle bin (-0.8 to below 0.4), upper bin (0.4 or more)

Illustrative cases are given below, each with its answer.
                                   molecule  assigned_class
0  CNCCNS(=O)(=O)c1cccc2cnccc12.Cl.Cl [H-8 dihydrochloride]       lower bin
1  Cc1nnc(SCC2=C(C(=O)O)N3C(=O)[C@@H](NC(=O)Cn4cnnn4)[C@H]3SC2)s1 [Cefazolin sodium]       lower bin

query: Sort into band: Cl.N=C(N)NC(=N)Nc1cccc(Cl)c1
result: upper bin

query: Sort into band: CCN1CCC[C@H]1CNC(=O)c1c(OC)ccc(I)c1O [S(−)-IBZM]
result: middle bin

query: Sort into band: C[N+]1(C)CCOC(O)(c2ccc(-c3ccc(C4(O)C[N+](C)(C)CCO4)cc3)cc2)C1.[Br-].[Br-] (stereo not drawn)
result: upper bin

query: Sort into band: Cc1cccc(/C=C/c2ccccc2)n1
result: lower bin

query: Sort into band: NC(N)=NCCCCN=C(N)N [Arcaine sulfate]
result: middle bin

query: Sort into band: NC(=O)OCC(COC(N)=O)c1ccccc1 [Felbamate]
result: middle bin
